tested on: Human immunodeficiency virus 1; assay: Antiviral activity of wild-type Human immunodeficiency virus 1 infected in human TZM-bl cells human assessed as inhibition of viral replication by luciferase reporter gene assay; format: functional, organism-based; conditions: Human immunodeficiency virus 1, TZM-bl
OBSERVABLE: IC50 (µM)
Provide the reading as a plain figure in µM.

Enquiry: Reported IC50, compound O=C1Nc2ccc(Cl)cc2[C@@](C#CC2CC2)(C(F)(F)F)O1 : ____
Return: 106

====

test system: Human immunodeficiency virus 1; test: Antiviral activity of Human immunodeficiency virus 1 isolate 8117 harboring A98S, G190A mutation in reverse transcriptase by cell based assay; format: functional, organism-based
OBSERVABLE: EC50

Enquiry: I would be grateful if you could share the reported EC50 for Cc1cc(C#N)cc(C)c1Oc1nc(Nc2ccc(C#N)cc2)nc(N)c1Br [ETRAVIRINE] .
Return: 0.65 nM

Enquiry: Query (compound): Cc1ccnc2c1NC(=O)c1cccnc1N2C1CC1 [NEVIRAPINE] ; field requested: EC50
Return: 703 nM

Enquiry: So what's the measured EC50 for this one? O=C1Nc2ccc(Cl)cc2[C@@](C#CC2CC2)(C(F)(F)F)O1 [EFAVIRENZ]
Return: 0.3 nM

Enquiry: Which EC50 reading was recorded for the compound Cc1cc(C)c(Nc2ccnc(Nc3ccc(C#N)cc3)n2)c(C)c1 [DAPIVIRINE] ?
Return: 0.2 nM
